Task for the reader: assign each of the following sequences its reported phosphorylation enrichment.
- Study System: Fes (UniProt P07332)
- Sequence (P07332 whole entry, looked up): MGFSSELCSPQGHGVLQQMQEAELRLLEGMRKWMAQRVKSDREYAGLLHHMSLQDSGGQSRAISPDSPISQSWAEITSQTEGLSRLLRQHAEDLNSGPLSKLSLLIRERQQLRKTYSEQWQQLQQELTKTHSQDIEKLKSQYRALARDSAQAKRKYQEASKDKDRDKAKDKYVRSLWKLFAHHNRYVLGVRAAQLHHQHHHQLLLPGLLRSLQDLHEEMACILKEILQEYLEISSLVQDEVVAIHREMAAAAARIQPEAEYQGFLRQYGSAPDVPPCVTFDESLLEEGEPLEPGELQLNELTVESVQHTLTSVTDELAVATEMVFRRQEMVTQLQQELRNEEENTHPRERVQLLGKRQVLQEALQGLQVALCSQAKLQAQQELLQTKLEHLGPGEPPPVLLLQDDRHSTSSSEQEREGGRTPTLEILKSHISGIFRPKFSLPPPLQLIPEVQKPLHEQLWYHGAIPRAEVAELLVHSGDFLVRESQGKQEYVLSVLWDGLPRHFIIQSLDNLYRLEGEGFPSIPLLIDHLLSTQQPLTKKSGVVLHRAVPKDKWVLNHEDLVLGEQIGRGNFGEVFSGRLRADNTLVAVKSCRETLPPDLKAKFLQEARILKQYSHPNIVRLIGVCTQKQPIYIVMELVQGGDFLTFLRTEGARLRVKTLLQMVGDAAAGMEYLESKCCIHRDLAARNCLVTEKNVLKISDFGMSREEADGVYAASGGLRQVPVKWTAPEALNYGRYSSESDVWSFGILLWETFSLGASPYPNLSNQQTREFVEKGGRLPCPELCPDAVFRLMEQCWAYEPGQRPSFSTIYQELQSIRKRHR
- Protocol Description: phosphorylation enrichment, bacterial display (enrichment ratio); higher = better substrate or ligand; peptides without Tyr show the background;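 further: 11-residue human phosphosite peptides and single-mutation variants displayed on the E. coli surface, counted by deep sequencing, each peptide's frequency after selection divided by its frequency in the unselected input library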;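 further: frequency after pTyr selection over input frequency; kinase dosed for 20-30% of maximal phosphorylation in three min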
Numbers only.

- Sequence String: "VRTGIYHGGKP [PIK3CA_Y361_E365K]"
  phosphorylation enrichment: 0.499
- Sequence String: "IGGHAYGDQYR [IDH1_Y135_R132G]"
  phosphorylation enrichment: 0.59
- Sequence String: "QQLQGYIPSNF [FRK_Y99_YF]"
  phosphorylation enrichment: 1.29

For each of the sequences below, state phosphorylation enrichment.
1. RRNTFYASIAK [ACADM_Y353_YF]
2. AFLQTYAHEVS [PCDHGA5_Y753_S754A]
3. LFSNAYLNDLA [ALDH1A1_Y119_YF]
4. RHNEIYEIKVD [LGR5_Y387]
5. VVAHHYSFAPD [TNS3_Y601_Q600H]

# output
0.622
0.985
1.58
1.18
0.882

For each of the sequences below, state phosphorylation enrichment.
1. HVKHNYECLVY [XRCC5_Y416_I412V]
2. TLQSMFGCDVG [HLA-B_Y123_Y123F]
3. MTRDIYRASFF [ALK_Y1278_A1274T_YF]

# output
[1.2, 1.09, 0.73]

For each of the sequences below, state phosphorylation enrichment.
1. AHAGEYGAVAL [HBA1_Y25_E28V]
2. GRFCGYKSKHG [EPHA3_Y570]
3. VITDFYVDMKF [MPP4_Y567_YF]
4. FFRRHYPLTTL [TNS4_Y644]
5. RLLRGYDQFAY [HLA-C_Y137_S140F]
6. EPTPGYEVGQR [TSC2_Y1788]
7. INSLKYAYNVS [EIF2B5_Y583_I587V]
8. AAVPAYDKIRV [STXBP2_Y401]

# output
[0.594, 0.664, 1.32, 0.917, 0.848, 0.907, 1.01, 0.714]

====

- Study System: EPHB1 (UniProt P54762)
- Sequence (P54762 whole entry, looked up): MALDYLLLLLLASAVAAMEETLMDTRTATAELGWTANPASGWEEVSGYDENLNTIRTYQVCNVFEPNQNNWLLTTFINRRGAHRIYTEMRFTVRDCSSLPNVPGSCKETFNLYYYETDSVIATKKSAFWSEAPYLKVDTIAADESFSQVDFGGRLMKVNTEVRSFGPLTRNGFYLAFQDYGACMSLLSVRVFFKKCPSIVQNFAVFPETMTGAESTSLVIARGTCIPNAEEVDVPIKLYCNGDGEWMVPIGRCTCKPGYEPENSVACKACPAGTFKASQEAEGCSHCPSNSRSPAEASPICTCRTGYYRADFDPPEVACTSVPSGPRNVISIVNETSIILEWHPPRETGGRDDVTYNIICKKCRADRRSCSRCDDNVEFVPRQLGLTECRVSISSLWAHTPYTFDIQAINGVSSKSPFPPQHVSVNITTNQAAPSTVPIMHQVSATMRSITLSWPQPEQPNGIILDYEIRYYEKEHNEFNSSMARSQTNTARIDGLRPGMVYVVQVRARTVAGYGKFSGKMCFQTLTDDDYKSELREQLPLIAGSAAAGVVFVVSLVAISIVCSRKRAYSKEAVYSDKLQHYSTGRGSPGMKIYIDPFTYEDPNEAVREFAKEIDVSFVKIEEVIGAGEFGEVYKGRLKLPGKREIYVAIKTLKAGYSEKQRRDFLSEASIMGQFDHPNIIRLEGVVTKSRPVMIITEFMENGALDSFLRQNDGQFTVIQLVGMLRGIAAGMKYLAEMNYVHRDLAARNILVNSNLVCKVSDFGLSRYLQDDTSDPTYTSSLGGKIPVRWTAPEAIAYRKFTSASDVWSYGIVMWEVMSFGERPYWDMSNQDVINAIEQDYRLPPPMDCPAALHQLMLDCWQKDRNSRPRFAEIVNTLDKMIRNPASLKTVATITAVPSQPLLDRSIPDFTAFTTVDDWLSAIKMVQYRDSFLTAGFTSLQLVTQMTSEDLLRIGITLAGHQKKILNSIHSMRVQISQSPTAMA
- Protocol Description: phosphorylation enrichment, bacterial display (enrichment ratio); higher = better substrate or ligand; peptides without Tyr show the background
// class assignment uses phosphorylation enrichment with these ranges: LOW (below 0.5), MEDIUM (0.5 to below 0.7), HIGH (0.7 or more)

Please review the following examples before continuing.
- Sequence String: "SFTDPYAQPPL [KMT2D_Y2378_YF]"
  Assigned Category: "LOW"
- Sequence String: "AAVPAYDKIRV [STXBP2_Y401]"
  Assigned Category: "LOW"
- Sequence String: "FEPWVYSFSYE [PRKDC_Y647]"
  Assigned Category: "HIGH"
- Sequence String: "LHAAAYRNALA [UQCRC2_Y182]"
  Assigned Category: "LOW"
- Sequence String: "PFTRNYYVQAV [CYBA_Y87_R90Q]"
  Assigned Category: "HIGH"
- Sequence String: "VDSAHYQLLET [DTX3L_Y385_K386Q]"
  Assigned Category: "HIGH"

# input Which band does ELANYYKLHHI [AK7_Y391] fall in?
# output HIGH

# input Which band does LVRPPYSFLAL [FOXI1_Y126_S129L_YF] fall in?
# output MEDIUM
